# literature pull: Cytochrome P450 2C9 (Homo sapiens, UniProt P11712) IC50

// worked examples, IC50 included
[
  {
    "compound": "O=C(c1n[nH]c2ncccc12)N1CCc2nc(COc3ccccc3)oc2C1",
    "assayed.target": "Cytochrome P450 2C9 (Homo sapiens, UniProt P11712)",
    "parameter.measured": "IC50",
    "value.measured": "14.8 µM"
  },
  {
    "compound": "O=C(O)C1(F)CCN(C2CC[C@]3(Cc4ccccc4Cc4ccccc43)C2)CC1 (stereo partly drawn)",
    "assayed.target": "Cytochrome P450 2C9 (Homo sapiens, UniProt P11712)",
    "parameter.measured": "IC50",
    "value.measured": "> 10 µM"
  },
  {
    "compound": "O=C1CC(c2c(C(F)(F)F)cccc2C(F)(F)F)CC(O)=C1Sc1ccccc1Cl (stereo not drawn)",
    "assayed.target": "Cytochrome P450 2C9 (Homo sapiens, UniProt P11712)",
    "parameter.measured": "IC50",
    "value.measured": "> 5 µM"
  },
  {
    "compound": "CNC(=O)[C@@]12C[C@@H]1[C@@H](n1cnc3c(NC)nc(C#Cc4cnccn4)nc31)[C@H](O)[C@@H]2O",
    "assayed.target": "Cytochrome P450 2C9 (Homo sapiens, UniProt P11712)",
    "parameter.measured": "IC50",
    "value.measured": "> 10 µM"
  },
  {
    "compound": "CCc1c(CCCC(=O)O)cccc1-c1nnc(-c2ccc(OC(C)C)c(C#N)c2)o1",
    "assayed.target": "Cytochrome P450 2C9 (Homo sapiens, UniProt P11712)",
    "parameter.measured": "IC50",
    "value.measured": "7.94 µM"
  },
  {
    "compound": "Fc1cc(OC(F)(F)C(F)F)cc([C@@](Cc2ccccc2)(Nc2nc3ccccc3[nH]2)c2ccc(Cl)cn2)c1",
    "assayed.target": "Cytochrome P450 2C9 (Homo sapiens, UniProt P11712)",
    "parameter.measured": "IC50",
    "value.measured": "19 µM"
  }
]

Asked: Query IC50 on Cytochrome P450 2C9 (Homo sapiens, UniProt P11712) for O=C(CCc1noc2c1Cc1cc(O)ccc1-2)Nc1ccccc1C(=O)O
Given back: 8.5 µM

Asked: Query IC50 on Cytochrome P450 2C9 (Homo sapiens, UniProt P11712) for Cn1ccc2cc(-n3c(=O)[nH]c4sc5c(c4c3=O)CCCC5)ccc21
Given back: > 30 µM

Asked: Query IC50 on Cytochrome P450 2C9 (Homo sapiens, UniProt P11712) for C[C@H](COc1ccc(-c2cn[nH]c(=O)c2)cc1)CN1CCC[C@H]1C
Given back: > 30 µM
